Value source: patent US10815210B2

- tested.on: human SGLT1 (Homo sapiens)
- experimental.details: SGLT1 assay: Na-dependent 14C-AMG uptake in CHO-K1 cells stably expressing human SGLT1
- settings: 500 μM AMG, 2 hours at 37° C.
readout.label: IC50 (nM)

1) [2H]C1([2H])Cc2ccc(Cc3cc([C@@H]4O[C@H](CO)[C@@H](O)[C@H](O)[C@H]4O)ccc3CC)cc21 [Compound 66]: 32
2) COc1cc(C)c(Cc2ccc3c(c2)CC3)cc1[C@@H]1O[C@H](CO)[C@@H](O)[C@H](O)[C@H]1O [Compound 7]: 48
3) OC[C@H]1O[C@@H](c2cc(Cc3ccc4c(c3)CC4)c(Cl)cc2O)[C@H](O)[C@@H](O)[C@@H]1O [Compound 8]: 5
4) [2H]C1([2H])Cc2ccc(Cc3cc([C@@H]4O[C@H](CO)[C@@H](O)[C@H](O)[C@H]4O)ccc3Cl)cc21 (single isomer, unassigned) [Compound 62]: 168
5) Cc1cc(F)c([C@@H]2O[C@H](CO)[C@@H](O)[C@H](O)[C@H]2O)cc1Cc1ccc2c(c1)CC2 [Compound 29]: 92
6) CCc1ccc([C@@H]2O[C@H](CO)[C@@H](F)[C@H](O)[C@H]2O)cc1Cc1ccc2c(c1)CC2 [Compound 128]: 47

a: [2H]C([2H])(c1ccc2c(c1)CC2)c1cc([C@@H]2O[C@H](CO)[C@@H](O)[C@H](O)[C@H]2O)c(OC)cc1Cl [Compound 56]
b: [2H]C1([2H])Cc2cc(Cc3cc([C@@H]4O[C@H](CO)[C@@H](O)[C@H](O)[C@H]4O)c(OC)cc3OC)ccc21 (single isomer, unassigned) [Compound 84]
c: Cc1cc(O)c([C@@H]2O[C@H](CO)[C@@H](O)[C@H](O)[C@H]2O)cc1Cc1ccc2c(c1)CC2 [Compound 6]
d: OC[C@H]1O[C@@H](c2cc(Cc3ccc4c(c3)CC4)c(Cl)cc2F)[C@H](O)[C@@H](O)[C@@H]1O [Compound 30]
[ask] Order the records, beginning with the lowest IC50 and ending with the highest. Your task in answering is to list the labels in the requested order.
[reply] c, b, a, d

----------
- tested.on: human SGLT2 (Homo sapiens, UniProt P31639)
- Sequence (P31639 1-672): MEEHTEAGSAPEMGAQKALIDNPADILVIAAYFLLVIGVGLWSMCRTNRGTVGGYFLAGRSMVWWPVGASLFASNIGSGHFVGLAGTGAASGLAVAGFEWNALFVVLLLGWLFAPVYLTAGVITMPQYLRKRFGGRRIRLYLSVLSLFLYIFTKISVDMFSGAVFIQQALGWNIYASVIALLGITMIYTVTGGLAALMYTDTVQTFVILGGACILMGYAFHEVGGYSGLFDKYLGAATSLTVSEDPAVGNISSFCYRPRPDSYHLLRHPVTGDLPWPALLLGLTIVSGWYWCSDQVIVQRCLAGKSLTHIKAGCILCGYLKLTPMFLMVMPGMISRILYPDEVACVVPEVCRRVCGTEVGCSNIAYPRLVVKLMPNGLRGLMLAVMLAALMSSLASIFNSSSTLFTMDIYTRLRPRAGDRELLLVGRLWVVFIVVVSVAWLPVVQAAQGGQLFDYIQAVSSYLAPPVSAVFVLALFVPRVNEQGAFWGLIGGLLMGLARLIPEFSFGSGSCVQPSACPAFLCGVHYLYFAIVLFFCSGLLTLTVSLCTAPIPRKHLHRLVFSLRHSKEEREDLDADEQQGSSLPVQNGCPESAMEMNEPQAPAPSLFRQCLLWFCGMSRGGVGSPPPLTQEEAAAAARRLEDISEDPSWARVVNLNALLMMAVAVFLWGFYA
- experimental.details: SGLT2 assay: Na-dependent 14C-AMG uptake in CHO-K1 cells stably expressing human SGLT2
- settings: 500 μM AMG, 2 hours at 37° C.
readout.label: IC50 (nM)

These solved cases illustrate the format of a correct answer.
1. COc1ccc([C@@H]2O[C@H](CO)[C@@H](O)[C@H](O)[C@H]2O)cc1Cc1ccc2c(c1)CC2: 3
2. Cc1ccc([C@@H]2O[C@H](CO)[C@@H](O)[C@H](O)[C@H]2O)cc1C(F)(F)c1ccc2c(c1)CC2: 2
3. [2H]C([2H])(c1ccc2c(c1)CC2)c1cc([C@@H]2O[C@H](CO)[C@@H](O)[C@H](O)[C@H]2O)ccc1C: 1
4. [2H]C1([2H])Cc2cc(Cc3cc([C@@H]4O[C@H](CO)[C@@H](O)[C@H](O)[C@H]4O)c(OC)cc3OC)ccc21 (single isomer, unassigned): 2
5. COc1cc(Cl)c(Cc2ccc3c(c2)CC3)cc1[C@@H]1O[C@H](CO)[C@@H](O)[C@H](O)[C@H]1O: 1

1: COc1cc(OC)c([C@@H]2O[C@H](CO)C(F)(F)[C@H](O)[C@H]2O)cc1Cc1ccc2c(c1)CC2
2: OC[C@H]1O[C@@H](c2ccc(Cl)c(C(F)(F)c3ccc4c(c3)CC4)c2)[C@H](O)[C@@H](O)[C@@H]1O
3: [2H]C1([2H])Cc2ccc(Cc3cc([C@@H]4O[C@H](CO)[C@@H](O)[C@H](O)[C@H]4O)c(O)cc3C)cc21 (single isomer, unassigned)
[ask] Could you please sort these 3 entries by IC50 from high to low? Your task in answering is to list the labels in the requested order.
[reply] 3, 2, 1
(3: 4 nM, 2: 2 nM, 1: 1 nM)

a: CCOc1cc(Cl)c(Cc2ccc3c(c2)CC3)cc1[C@@H]1O[C@H](CO)[C@@H](O)[C@H](O)[C@H]1O
b: Cc1ccc([C@@H]2O[C@H](CO)[C@@H](F)[C@H](O)[C@H]2O)cc1C(F)(F)c1ccc2c(c1)CC2
c: [2H]C1([2H])Cc2ccc(Cc3cc([C@@H]4O[C@H](CO)[C@@H](O)[C@H](O)[C@H]4O)ccc3OC)cc21 (single isomer, unassigned)
d: [2H]c1c(C)c(Cc2ccc3c(c2)CC3)cc([C@@H]2O[C@H](CO)[C@@H](O)[C@H](O)[C@H]2O)c1O (single isomer, unassigned)
[ask] Could you please sort these 4 entries by IC50 from high to low? Your task in answering is to list the labels in the requested order.
[reply] b, c, d, a

P: CCOc1cc(CC)c(Cc2ccc3c(c2)CC3)cc1[C@@H]1O[C@H](CO)[C@@H](O)[C@H](O)[C@H]1O
Q: COc1cc(O)c([C@@H]2O[C@H](CO)[C@@H](F)[C@H](O)[C@H]2O)cc1Cc1ccc2c(c1)CC2
[ask] Select one: P or Q . Criterion: greater recorded IC50. Refer to your chosen entry by its label in the reply.
[reply] Q
(Q: 3 nM, P: 1 nM)

----------
- tested.on: human SGLT1 (Homo sapiens, UniProt P13866)
- Sequence (P13866 whole entry): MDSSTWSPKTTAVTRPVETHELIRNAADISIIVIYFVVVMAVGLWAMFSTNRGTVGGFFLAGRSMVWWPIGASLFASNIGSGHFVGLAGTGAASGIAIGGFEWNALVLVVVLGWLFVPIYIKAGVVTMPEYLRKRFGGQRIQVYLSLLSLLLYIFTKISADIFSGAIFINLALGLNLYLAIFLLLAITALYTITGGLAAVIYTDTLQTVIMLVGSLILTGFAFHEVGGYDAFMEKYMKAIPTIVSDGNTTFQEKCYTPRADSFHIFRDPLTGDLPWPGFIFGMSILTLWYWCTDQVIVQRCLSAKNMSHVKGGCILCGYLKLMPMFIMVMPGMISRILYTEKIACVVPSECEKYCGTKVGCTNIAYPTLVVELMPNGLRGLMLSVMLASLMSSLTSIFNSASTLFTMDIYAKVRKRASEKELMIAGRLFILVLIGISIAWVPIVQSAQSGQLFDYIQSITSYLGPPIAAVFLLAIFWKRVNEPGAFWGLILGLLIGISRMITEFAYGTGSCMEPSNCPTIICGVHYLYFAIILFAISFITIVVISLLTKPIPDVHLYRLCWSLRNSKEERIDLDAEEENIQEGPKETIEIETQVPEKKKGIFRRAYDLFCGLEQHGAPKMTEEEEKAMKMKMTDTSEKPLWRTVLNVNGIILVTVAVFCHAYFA
- experimental.details: SGLT1 assay: Na-dependent 14C-AMG uptake in CHO-K1 cells stably expressing human SGLT1
- settings: 500 μM AMG, 2 hours at 37° C.
pIC50: −log10 of the molar value.
readout.label: pIC50

P: COc1cc(C)c(Cc2ccc3c(c2)CC3)cc1[C@@H]1O[C@H](CO)C(F)(F)[C@H](O)[C@H]1O
Q: [2H]C([2H])([2H])Oc1cc(C)c(C([2H])([2H])c2ccc3c(c2)CC3)cc1[C@@H]1O[C@H](CO)[C@@H](O)[C@H](O)[C@H]1O
[ask] Of P and Q , which shows the smaller pIC50 value? Refer to your chosen entry by its label in the reply.
[reply] P
(P: 7.02, Q: 7.39)

P: [2H]C([2H])(c1ccc2c(c1)CC2)c1cc([C@@H]2O[C@H](CO)[C@@H](O)[C@H](O)[C@H]2O)c(OC)cc1OC (single isomer, unassigned)
Q: CCc1cc(OC)c([C@@H]2O[C@H](CO)[C@@H](O)[C@H](O)[C@H]2O)cc1Cc1ccc2c(c1)CC2
R: COc1cc(F)c([C@@H]2O[C@H](CO)[C@@H](O)[C@H](O)[C@H]2O)cc1Cc1ccc2c(c1)CC2
[ask] Could you please sort these 3 entries by pIC50 from high to low? Your task in answering is to list the labels in the requested order.
[reply] Q, R, P
(Q: 7.49, R: 7.08, P: 6.85)

1: OC[C@H]1O[C@@H](c2ccc(Cl)c(C(F)(F)c3ccc4c(c3)CC4)c2)[C@H](O)[C@@H](O)[C@@H]1O
2: [2H]C([2H])([2H])Oc1cc(OC)c(Cc2ccc3c(c2)CC3)cc1[C@@H]1O[C@H](CO)[C@@H](O)[C@H](O)[C@H]1O
3: COc1cc(OCF)c([C@@H]2O[C@H](CO)[C@@H](O)[C@H](O)[C@H]2O)cc1Cc1ccc2c(c1)CC2
4: COc1cc(Cl)c(Cc2ccc3c(c2)CC3)cc1[C@@H]1O[C@H](CO)C(F)(F)[C@H](O)[C@H]1O
[ask] Could you please sort these 4 entries by pIC50 from high to low? Your task in answering is to list the labels in the requested order.
[reply] 4, 2, 1, 3
(4: 7.89, 2: 7.62, 1: 7.30, 3: 6.97)

1: Cc1cc(OC2CC2)c([C@@H]2O[C@H](CO)[C@@H](O)[C@H](O)[C@H]2O)cc1Cc1ccc2c(c1)CC2
2: COc1cc(Cl)c(Cc2ccc3c(c2)CC3)cc1[C@@H]1O[C@H](CO)[C@@H](O)[C@H](O)[C@H]1O
[ask] Of 1 and 2 , which shows the smaller pIC50 value? Refer to your chosen entry by its label in the reply.
[reply] 2

A: COc1cc(OC)c([C@@H]2O[C@H](CO)C(F)(F)[C@H](O)[C@H]2O)cc1Cc1ccc2c(c1)CC2
B: [2H]C1([2H])Cc2cc(Cc3cc([C@@H]4O[C@H](CO)[C@@H](O)[C@H](O)[C@H]4O)c(OC)cc3Cl)ccc21
[ask] Select one: A or B . Criterion: greater recorded pIC50. Refer to your chosen entry by its label in the reply.
[reply] A

P: Cc1ccc([C@@H]2O[C@H](CO)[C@@H](F)[C@H](O)[C@H]2O)cc1Cc1ccc2c(c1)CC2
Q: [2H]C1([2H])Cc2ccc(Cc3cc([C@@H]4O[C@H](CO)[C@@H](O)[C@H](O)[C@H]4O)c(F)cc3OC)cc21
[ask] Of P and Q , which shows the smaller pIC50 value? Refer to your chosen entry by its label in the reply.
[reply] P
(P: 7.28, Q: 7.62)
